- Test system: K. pneumoniae expressing the Class A carbapenemase KPC-2
- ASSAY_COMMENT: microbe, parasite or virus in culture
- Assay type: cell-based
- TEST_SETTINGS: in presence of Piperacillin 16 μg/ml (Examples 57-65)
Where a name gives a salt, the structure may show the parent alone.
Listed molecules paired with reported MIC of example compound, K. pneumoniae KPC-2
MEASURED_PROPERTY: MIC of example compound, K. pneumoniae KPC-2 (µg/mL)

>>> measured_number("O=C(O)CNCc1ccc(CC(=O)N[C@@H](Cc2cccc(C(=O)O)c2O)B(O)O)cc1 [Example 58]")
0.5
>>> measured_number("N=C(N)NCc1cccc(CC(=O)N[C@@H](Cc2cccc(C(=O)O)c2O)B(O)O)c1 [Example 65, formate salt]")
0.5
>>> measured_number("O=C(Cc1ccc(CNC(CO)C(=O)O)cc1)N[C@@H](Cc1cccc(C(=O)O)c1O)B(O)O (stereo partly drawn) [Example 60]")
0.5

* * *

Listed compounds paired with reported IC50
- TEST_TARGET: KPC-2 β-lactamase (Klebsiella pneumoniae)
- Construct: expressed as native untagged proteins; made in house; host or cells: E. coli BL21(DE3)
- Sequence (Q9F663 25-293 limits assumed): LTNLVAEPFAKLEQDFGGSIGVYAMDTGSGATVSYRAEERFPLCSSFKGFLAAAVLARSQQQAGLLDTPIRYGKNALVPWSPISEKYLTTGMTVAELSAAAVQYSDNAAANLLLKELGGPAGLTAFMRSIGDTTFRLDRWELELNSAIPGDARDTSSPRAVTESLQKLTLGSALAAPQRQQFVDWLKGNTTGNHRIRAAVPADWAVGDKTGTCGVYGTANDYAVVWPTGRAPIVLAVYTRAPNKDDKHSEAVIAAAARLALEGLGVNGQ
- ASSAY_COMMENT: β-lactamase enzyme inhibition assay (nitrocefin substrate), KPC-2
- Type: biochemical
Structures can show the parent of a compound that is named as a salt.
MEASURED_PROPERTY: IC50 (nM)

>>> measured_number("NCc1cccc(CC(=O)N[C@@H](Cc2cccc(C(=O)O)c2O)B(O)O)c1")
16
>>> measured_number("O=C(N[C@@H](Cc1cccc(C(=O)O)c1O)B(O)O)c1cccc(CNc2cccnc2)c1")
11
>>> measured_number("Cc1cc(NCc2cccc(C(=O)N[C@@H](Cc3cccc(C(=O)O)c3O)B(O)O)c2)no1")
4
>>> measured_number("O=C(Cc1ccc(CN2CCNCC2)cc1)N[C@@H](Cc1cccc(C(=O)O)c1O)B(O)O")
9
>>> measured_number("CN(C)Cc1ccc(C(=O)N[C@@H](Cc2cccc(C(=O)O)c2O)B(O)O)cc1 [Example 4, formate salt]")
4
>>> measured_number("CN(C)Cc1ccc(CC(=O)N[C@@H](Cc2cccc(C(=O)O)c2O)B(O)O)cc1")
5
>>> measured_number("CNCc1ccc(C(=O)N[C@@H](Cc2cccc(C(=O)O)c2O)B(O)O)cc1.Cl [Example 11, hydrochloride]")
4
>>> measured_number("O=C(Cc1ccc(CNC(CO)C(=O)O)cc1)N[C@@H](Cc1cccc(C(=O)O)c1O)B(O)O (stereo partly drawn)")
11
>>> measured_number("Cl.O=C(N[C@@H](Cc1cccc(C(=O)O)c1O)B(O)O)c1ccc(CNCCO)cc1 [Example 16, hydrochloride]")
5
>>> measured_number("CCNCc1ccc(C(=O)N[C@@H](Cc2cccc(C(=O)O)c2O)B(O)O)cc1.Cl [Example 6, Hydrochloride]")
4
>>> measured_number("O=C(O)CNCc1ccc(CC(=O)N[C@@H](Cc2cccc(C(=O)O)c2O)B(O)O)cc1")
13
>>> measured_number("N=C(N)c1ccc(CC(=O)N[C@@H](Cc2cccc(C(=O)O)c2O)B(O)O)cc1 [Example 62, formate salt]")
9
>>> measured_number("O=C(N[C@@H](Cc1cccc(C(=O)O)c1O)B(O)O)c1ccc(CN2CCOCC2)cc1")
14
>>> measured_number("Cl.Nc1cc(C(=O)N[C@@H](Cc2cccc(C(=O)O)c2O)B(O)O)ccn1")
5
>>> measured_number("N=C(N)NCc1cc(CC(=O)N[C@@H](Cc2cccc(C(=O)O)c2O)B(O)O)ccn1 [Example 64, formate]")
17
>>> measured_number("CC[N+](CC)(CC)Cc1ccc(C(=O)N[C@@H](Cc2cccc(C(=O)O)c2O)B(O)O)cc1")
3
>>> measured_number("CC(=O)NCc1ccc(CC(=O)N[C@@H](Cc2cccc(C(=O)O)c2O)B(O)O)cc1")
4
>>> measured_number("Cl.Nc1cncc(C(=O)N[C@@H](Cc2cccc(C(=O)O)c2O)B(O)O)c1 [Example 44, hydrochloride]")
30
>>> measured_number("CO/N=C(\\C(=O)N[C@@H](Cc1cccc(C(=O)O)c1O)B(O)O)c1csc(NC(=O)CN)n1.Cl [Example 51, hydrochloride]")
58
>>> measured_number("O=C(N[C@@H](Cc1cccc(C(=O)O)c1O)B(O)O)c1cccc(CN(CCO)CCO)c1")
8.1
>>> measured_number("O=C(Cc1ccc(CN(CCO)CCO)cc1)N[C@@H](Cc1cccc(C(=O)O)c1O)B(O)O")
26
>>> measured_number("O=C(N[C@@H](Cc1cccc(C(=O)O)c1O)B(O)O)c1ccc(CN2CCNCC2)cc1 [Example 5, Hydrochloride]")
1
>>> measured_number("Cl.NCc1cc(CC(=O)N[C@@H](Cc2cccc(C(=O)O)c2O)B(O)O)ccn1 [Example 63, hydrochloride]")
24
>>> measured_number("Cl.O=C(N[C@@H](Cc1cccc(C(=O)O)c1O)B(O)O)c1ccc(CN2CCCC(C(=O)O)C2)cc1 (stereo partly drawn) [Example 12, hydrochloride]")
11
